- systemUnderTest: T1, ALKBH6 (Arabidopsis thaliana, UniProt Q9SUP1 1-241)
- T1 sequence: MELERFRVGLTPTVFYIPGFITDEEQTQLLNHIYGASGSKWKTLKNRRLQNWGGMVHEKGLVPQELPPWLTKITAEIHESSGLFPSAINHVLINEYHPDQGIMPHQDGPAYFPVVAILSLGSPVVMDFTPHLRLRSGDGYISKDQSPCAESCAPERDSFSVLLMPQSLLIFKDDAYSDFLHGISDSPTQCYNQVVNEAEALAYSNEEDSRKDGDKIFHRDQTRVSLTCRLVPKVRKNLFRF
- assayProtocol: EMSA; 3, 5, 7 uM protein; 10 mM Tris-HCl pH 8.0, 150 mM NaCl, 1.0 mM EDTA, 10% glycerol; 5.0 pmol RNA in 20 uL, on ice 30 min; 6% native PAGE, 0.25x TBE, 4 °C
- conditions: protein: recombinant; tags: His-TF (pCold TF) fusion, cleaved with HRV 3C protease; Ni-NTA purified; label: 5'-fluorescein
metric: binding result

binder: GGACGCUUCUUCGACCU (ssRNA) [m5C motif RNA unmodified]
assayValue: binds
--
binder: GAAUCCGAACUAGUUCU (ssRNA, m6A at position 9) [SOS3 RNA m6A]
assayValue: binds
--
binder: GGACGCUUCUUCGACCU (ssRNA, m5C at position 9) [m5C motif RNA m5C]
assayValue: binds
--
binder: CGUAGGCUACAGAGAAGCCUU (ssRNA) [MAT2A RNA unmodified]
assayValue: binds
--
binder: GAAUCCGAACUAGUUCU (ssRNA) [SOS3 RNA unmodified]
assayValue: binds
--
binder: CGUAGGCUACAGAGAAGCCUU (ssRNA, m6A at position 11) [MAT2A RNA m6A]
assayValue: binds
